Measured values drawn from paper PMC5706701 for this set.

# TESTED_TARGET: Human IP6K1 (Homo sapiens, UniProt Q92551)
# Construct: GST (N, cleaved yes); made in house; host or cells: C43 E. coli, pGEX-6P-2
# Sequence (Q92551 whole entry): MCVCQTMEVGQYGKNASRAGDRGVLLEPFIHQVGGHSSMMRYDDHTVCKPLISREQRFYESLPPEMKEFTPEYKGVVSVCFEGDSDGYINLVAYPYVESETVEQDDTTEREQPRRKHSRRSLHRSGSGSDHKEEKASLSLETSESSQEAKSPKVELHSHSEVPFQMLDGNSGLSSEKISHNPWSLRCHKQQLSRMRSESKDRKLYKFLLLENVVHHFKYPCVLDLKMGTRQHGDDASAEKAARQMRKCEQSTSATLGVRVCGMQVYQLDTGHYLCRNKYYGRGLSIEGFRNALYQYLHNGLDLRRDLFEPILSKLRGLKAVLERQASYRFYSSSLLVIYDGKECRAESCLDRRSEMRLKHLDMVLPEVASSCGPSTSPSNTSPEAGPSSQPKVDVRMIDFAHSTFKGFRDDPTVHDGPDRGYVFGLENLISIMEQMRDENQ
# PROTOCOL_TEXT: IP6K1 high-throughput screen of the Sigma LOPAC (ADP-Glo Max, single point);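 note: final compound concentration 10µM in 5% DMSO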
# Assay type: biochemical
# ASSAY_CONDITIONS: LOPAC single-point screen; Z-score from raw signal with plate average and StDev
Structures can show the parent of a compound that is named as a salt.
MEASURED_ATTRIBUTE: Z-score

Quickly give me recorded Z-score for C[C@H](Cc1ccc2c(c1)OC(C(=O)[O-])(C(=O)[O-])O2)NC[C@H](O)c1cccc(Cl)c1.[Na+].[Na+] [CL 316,243]
-0.2934

Quickly give me recorded Z-score for CC1(C)CCC(NC(=O)[C@@H](N)CCC(=O)O)CC1 [CR 2249]
-0.3997

Quickly give me recorded Z-score for NC(N)=NCCCCN=C(N)N [Arcaine sulfate]
-0.1252

Quickly give me recorded Z-score for COC(=O)c1cc2c(cn1)[nH]c1ccccc12 [Methyl beta-carboline-3-carboxylate]
-0.2715

Quickly give me recorded Z-score for CN(C)c1nc(N)c(C(=O)NC(=N)N)nc1Cl [5-(N,N-Dimethyl)amiloride hydrochloride]
-0.2015

Quickly give me recorded Z-score for OC[C@H]1O[C@@H](n2cnc3c(NC4CCCC4)ncnc32)[C@H](O)[C@@H]1O [N6-Cyclopentyladenosine]
-0.4273

Quickly give me recorded Z-score for COCc1nc2c([nH]1)c(=O)n(C)c(=O)n2CC(C)C
-0.4027

---

Please respond with reported Z-score for every item in the list.
# TESTED_TARGET: Human IP6K1 (Homo sapiens, UniProt Q92551)
# Construct: GST (N, cleaved yes); made in house; host or cells: C43 E. coli, pGEX-6P-2
# PROTOCOL_TEXT: IP6K1 high-throughput screen of the Sigma LOPAC (ADP-Glo Max, single point);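 note: final compound concentration 10µM in 5% DMSO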
# Format: biochemical
# ASSAY_CONDITIONS: LOPAC single-point screen; Z-score from plate average and StDev
Where a name gives a salt, the structure may show the parent alone.
The answer should be written as a number, with no unit following it.

Quickly give me recorded Z-score for CC(C)OC(=O)C(C)(C)Oc1ccc(C(=O)c2ccc(Cl)cc2)cc1 [Fenofibrate]
1.356

Quickly give me recorded Z-score for O=C1NC(=O)C(c2ccccc2)(c2ccccc2)N1 [Phenytoin sodium]
2.359

Quickly give me recorded Z-score for CN(C)CC[C@@H](c1ccc(Br)cc1)c1ccccn1 [(+)-Brompheniramine maleate]
1.765

Quickly give me recorded Z-score for NC(=O)CI [Iodoacetamide]
1.942

Quickly give me recorded Z-score for CNC(=O)Oc1ccc2c(c1)[C@]1(C)CCN(C)[C@@H]1N2C [(-)-Physostigmine]
1.503

---

Please respond with reported Z-score for every item in the list.
# TESTED_TARGET: Human IP6K1 (Homo sapiens, UniProt Q92551)
# Construct: GST (N, cleaved yes); made in house; host or cells: C43 E. coli, pGEX-6P-2
# PROTOCOL_TEXT: IP6K1 high-throughput screen of the Sigma LOPAC (ADP-Glo Max, single point);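 note: final compound concentration 10µM in 5% DMSO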
# Type: biochemical
# ASSAY_CONDITIONS: LOPAC single-point screen; Z-score relative to plate average and StDev
Structures can show the parent of a compound that is named as a salt.
The answer should be written as a number, with no unit following it.

Quickly give me recorded Z-score for OCCN(CCO)c1nc(N2CCCCC2)c2nc(N(CCO)CCO)nc(N3CCCCC3)c2n1
-0.5561

Quickly give me recorded Z-score for O=C(O)c1ccccc1Nc1cccc(OCc2ccc3ccccc3n2)c1
-0.6013

Quickly give me recorded Z-score for CN1CCc2cccc3c2[C@H]1Cc1ccc(O)c(O)c1-3 [Apomorphine hydrochloride hemihydrate]
-0.8217

Quickly give me recorded Z-score for CC(N)C(=O)OC(C)(C)Cc1ccc(Cl)cc1 (stereo not shown) [Alaproclate hydrochloride]
-0.5494

---

# TESTED_TARGET: Human IP6K1 (Homo sapiens)
# Construct: GST (N, cleaved yes); made in house; host or cells: C43 E. coli, pGEX-6P-2
# PROTOCOL_TEXT: IP6K1 high-throughput screen of the Sigma LOPAC (ADP-Glo Max, single point);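 note: final compound concentration 10µM in 5% DMSO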
# Format: biochemical
# ASSAY_CONDITIONS: LOPAC single-point screen, ADP-Glo Max luminescence raw signal per well
Counter-ions that a name gives are not always drawn.
MEASURED_ATTRIBUTE: Raw Signal
The answer should be written as a number, with no unit following it.

Quickly give me recorded Raw Signal for C[n+]1cc2c3c(ccc2c2ccc4cc5c(cc4c21)OCO5)OCO3 [Sanguinarine chloride]
52602

Quickly give me recorded Raw Signal for CCn1cc(C(=O)O)c(=O)c2cc(F)c(N3CCNC(C)C3)c(F)c21 (stereo not drawn) [Lomefloxacin hydrochloride]
49930

Quickly give me recorded Raw Signal for O=C(CCCN1CCC2(CC1)C(=O)NCN2c1ccccc1)c1ccc(F)cc1 [Spiperone hydrochloride]
52620

Quickly give me recorded Raw Signal for NCCc1c[nH]cn1 [Histamine dihydrochloride]
51759

Quickly give me recorded Raw Signal for NCCS(=O)(=O)O
52621

Quickly give me recorded Raw Signal for Cc1cn[nH]c1.Cl [4-Methylpyrazole hydrochloride]
63526

Quickly give me recorded Raw Signal for Cc1ccccc1N1CCN(S(=O)(=O)CC23CCC(CC2NC(=O)C(N)CCS(C)(=O)=O)C3(C)C)CC1 (stereo not drawn)
50329

Quickly give me recorded Raw Signal for CCCCCCCCCCCCCCCCCC(=O)NCC(COP(=O)([O-])OCC[N+](C)(C)C)OCC (racemic)
62966

Quickly give me recorded Raw Signal for Cl.N=C(N)NC(=N)Nc1cccc(Cl)c1
49824

---

# TESTED_TARGET: Human IP6K1 (Homo sapiens)
# Construct: GST (N, cleaved yes); made in house; host or cells: C43 E. coli, pGEX-6P-2
# PROTOCOL_TEXT: IP6K1 high-throughput screen of the Sigma LOPAC (ADP-Glo Max, single point);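 note: final compound concentration 10µM in 5% DMSO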
# Type: biochemical
# ASSAY_CONDITIONS: LOPAC single-point screen, Z-score against plate average and StDev
Structures can show the parent of a compound that is named as a salt.
Response key: Yes means Z-score >= 0.05; No means Z-score < 0.05.

Exam item: decide whether the reported Z-score for CCCCCCCCCCCCCCC[C@H](O)[C@H](N)CO (racemic) [DL-erythro-Dihydrosphingosine] is at least 0.05.
No

Exam item: decide whether the reported Z-score for N[C@@H](CC(=O)O)C(=O)O is at least 0.05.
Yes

Exam item: decide whether the reported Z-score for C#CCN1C(C)=C(C(=O)OC)C(c2cccc([N+](=O)[O-])c2)C(C(=O)OCC)=C1C (stereo not drawn) is at least 0.05.
Yes

Exam item: decide whether the reported Z-score for O=C(O)CCCc1ccc(N(CCCl)CCCl)cc1 is at least 0.05.
No

Exam item: decide whether the reported Z-score for COc1cc(C(O)CO)ccc1OS(=O)(=O)[O-].[K+] (stereo not drawn) [MHPG sulfate potassium] is at least 0.05.
Yes

Exam item: decide whether the reported Z-score for O=c1c2ccccc2[se]n1-c1ccccc1 is at least 0.05.
No

Exam item: decide whether the reported Z-score for CN(C)S(=O)(=O)c1ccc2c(c1)/C(=C/c1cc3c([nH]1)CCCC3)C(=O)N2 is at least 0.05.
Yes

Exam item: decide whether the reported Z-score for CN(C)CCC(c1ccccc1)c1ccccn1 (stereo not drawn) [Pheniramine maleate] is at least 0.05.
Yes

Exam item: decide whether the reported Z-score for COc1ccc(CCCOC(Cn2ccnc2)c2ccc(OC)cc2)cc1 (stereo not drawn) is at least 0.05.
Yes

Exam item: decide whether the reported Z-score for Cc1ccc(/C(=C\CN2CCCC2)c2ccccn2)cc1.Cl [Triprolidine hydrochloride] is at least 0.05.
Yes

Exam item: decide whether the reported Z-score for Clc1ccc(C(c2ccccc2Cl)C(Cl)Cl)cc1 (stereo not drawn) is at least 0.05.
Yes

Exam item: decide whether the reported Z-score for Cc1ccccc1CNc1ncnc2c1ncn2[C@@H]1O[C@H](CO)[C@@H](O)[C@H]1O is at least 0.05.
No

Exam item: decide whether the reported Z-score for COc1cc(C(=O)OCCCN2CCCN(CCCOC(=O)c3cc(OC)c(OC)c(OC)c3)CC2)cc(OC)c1OC [Dilazep hydrochloride] is at least 0.05.
Yes

Exam item: decide whether the reported Z-score for COc1ccccc1N1CCNCC1.Cl is at least 0.05.
Yes

Exam item: decide whether the reported Z-score for Nc1ncnc2c1ncn2[C@@H]1O[C@H](C(=O)NC2CC2)[C@@H](O)[C@H]1O is at least 0.05.
No

Exam item: decide whether the reported Z-score for c1ccc2c(c1)CCCC2C1=NCCN1 (stereo not drawn) [Tetrahydrozoline hydrochloride] is at least 0.05.
Yes

Exam item: decide whether the reported Z-score for C[C@H](CS)C(=O)N1CCC[C@H]1C(=O)O is at least 0.05.
Yes

Exam item: decide whether the reported Z-score for CC(C)C[C@H]1C(=O)N2CCC[C@H]2[C@]2(O)O[C@](NC(=O)[C@@H]3C=C4c5cccc6[nH]c(Br)c(c56)C[C@H]4N(C)C3)(C(C)C)C(=O)N12.CS(=O)(=O)O [(+)-Bromocriptine methanesulfonate] is at least 0.05.
Yes
